Target: UniProt P08183
Sequence (P08183 whole entry): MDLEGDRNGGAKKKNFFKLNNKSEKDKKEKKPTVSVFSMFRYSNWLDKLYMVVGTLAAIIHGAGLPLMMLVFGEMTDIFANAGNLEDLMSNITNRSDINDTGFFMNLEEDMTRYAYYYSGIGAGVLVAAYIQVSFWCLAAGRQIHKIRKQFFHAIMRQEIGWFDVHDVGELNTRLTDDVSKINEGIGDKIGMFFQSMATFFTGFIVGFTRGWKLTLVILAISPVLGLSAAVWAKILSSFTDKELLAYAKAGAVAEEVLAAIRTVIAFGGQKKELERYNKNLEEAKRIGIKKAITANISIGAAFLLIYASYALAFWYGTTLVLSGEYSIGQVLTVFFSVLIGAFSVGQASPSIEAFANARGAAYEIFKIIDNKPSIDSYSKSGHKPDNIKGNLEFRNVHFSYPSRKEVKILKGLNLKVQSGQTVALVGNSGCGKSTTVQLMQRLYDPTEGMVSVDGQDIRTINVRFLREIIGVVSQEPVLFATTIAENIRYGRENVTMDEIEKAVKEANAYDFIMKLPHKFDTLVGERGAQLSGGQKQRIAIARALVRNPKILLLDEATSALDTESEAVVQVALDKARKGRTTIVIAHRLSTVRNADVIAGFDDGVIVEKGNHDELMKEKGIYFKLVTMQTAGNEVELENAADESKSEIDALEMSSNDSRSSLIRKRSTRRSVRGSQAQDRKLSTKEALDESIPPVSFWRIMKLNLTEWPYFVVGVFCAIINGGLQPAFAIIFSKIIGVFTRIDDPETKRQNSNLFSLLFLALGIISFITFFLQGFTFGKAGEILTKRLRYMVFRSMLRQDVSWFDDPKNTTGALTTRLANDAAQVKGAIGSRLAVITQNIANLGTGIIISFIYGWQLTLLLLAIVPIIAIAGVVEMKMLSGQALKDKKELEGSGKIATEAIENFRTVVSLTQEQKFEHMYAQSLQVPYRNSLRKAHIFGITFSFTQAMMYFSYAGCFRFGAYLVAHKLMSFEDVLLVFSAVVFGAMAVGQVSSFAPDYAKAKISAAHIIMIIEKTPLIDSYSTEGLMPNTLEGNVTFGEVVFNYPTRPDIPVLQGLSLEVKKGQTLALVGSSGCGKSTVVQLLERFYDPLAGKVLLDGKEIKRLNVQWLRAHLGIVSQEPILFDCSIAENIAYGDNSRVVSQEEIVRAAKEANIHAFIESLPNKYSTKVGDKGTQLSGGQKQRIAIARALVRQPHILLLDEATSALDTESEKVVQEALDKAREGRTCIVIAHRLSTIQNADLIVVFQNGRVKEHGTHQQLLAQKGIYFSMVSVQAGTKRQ
Assay: in vitro
Settings: pig, LLC-PK1
PARAMETER: efflux ratio at 2 h, 1 µM

C=CC(=O)N1CC[C@H]2C[C@H](c3ccc4ncnc(Nc5cc(C)c(Oc6ccn7ncnc7c6)cc5F)c4n3)C[C@H]21 (racemic)    1.2
C=CC(=O)N1[C@@H]2CCC[C@H]1[C@@H](c1ccc3ncnc(Nc4ccc(Oc5ccn6ncnc6c5)c(C)c4F)c3n1)C2    1
C=CC(=O)N1C[C@@H]2C[C@H]1C[C@H]2c1ccc2ncnc(Nc3ccc(Oc4ccn5ncnc5c4)c(C)c3F)c2n1 (racemic)    0.6
C=CC(=O)N1CCC[C@@H](c2ccc3ncnc(Nc4ccc(Oc5ccc6c(c5)ncn6C)c(C)c4F)c3n2)C1 (racemic)    1.2
C=CC(=O)N1[C@@H]2CC[C@H]1[C@H](c1ccc3ncnc(Nc4ccc(Oc5ccn6ncnc6c5)c(Cl)c4F)c3n1)C2    1.2
C=CC(=O)N1C[C@H]2C[C@H](c3ccc4ncnc(Nc5ccc(Oc6ccn7ncnc7c6)c(Cl)c5F)c4n3)[C@@H]1C2    0.8
C=CC(=O)N1CC2CC(C1)N2c1ccc2ncnc(Nc3ccc(Oc4cnc5c(c4)ncn5C)c(C)c3F)c2n1    1.5
C=CC(=O)N1[C@H](C)CN(c2ccc3ncnc(Nc4cc(C)c(Oc5ccc6c(c5)ncn6C)cc4F)c3n2)C[C@@H]1C    1.4
C=CC(=O)N1C[C@H]2C[C@@H]1CN(c1ccc3ncnc(Nc4ccc(Oc5ccc6c(c5)ncn6C)c(C)c4F)c3n1)C2    2.2
C=CC(=O)N1C[C@H]2CC[C@@H]1C[C@@H]2c1ccc2ncnc(Nc3ccc(Oc4ccn5ncnc5c4)c(C)c3F)c2n1 (racemic)    0.8
C=CC(=O)N1C[C@H]2CC[C@@H]1[C@H](c1ccc3ncnc(Nc4ccc(Oc5cnc6c(c5)ncn6C)c(C)c4F)c3n1)C2    0.7
C=CC(=O)N1CCN(c2ccc3ncnc(Nc4ccc(Oc5cnc6c(c5)ncn6C)c(C)c4F)c3n2)C[C@H]1C    1.1
C=CC(=O)N1C[C@H]2CC[C@@H]1C[C@H]2c1ccc2ncnc(Nc3ccc(Oc4ccn5ncnc5c4)c(C)c3F)c2n1 (racemic)    1.4
C=CC(=O)N1CCC(Sc2ccc3ncnc(Nc4ccc(Oc5ccc6c(c5)ncn6C)c(C)c4F)c3n2)CC1    2
C=CC(=O)N1CCN(c2ccc3ncnc(Nc4cc(C)c(Oc5cnc6c(c5)ncn6C)cc4F)c3n2)C[C@@H]1C1CC1    1.5
C=CC(=O)N1CC[C@@H](c2ccc3ncnc(Nc4ccc(Oc5ccn6ncnc6c5)c(C)c4F)c3n2)CC12CC2 (single isomer, unassigned)    0.7
C=CC(=O)N1CCN(c2ccc3ncnc(Nc4ccc(Oc5ccn6ncnc6c5)c(Cl)c4F)c3n2)CC1    1.5
C=CC(=O)N1CCCC(c2ccc3ncnc(Nc4ccc(Oc5cnc6c(c5)ncn6C)c(C)c4F)c3n2)CC1 (stereo not shown)    1
C=CC(=O)N1[C@@H]2CC[C@H]1CC(c1ccc3ncnc(Nc4ccc(Oc5ccc6c(c5)ncn6C)c(C)c4F)c3n1)C2 (mixture of isomers)    1.7
C=CC(=O)N1[C@H](C)CN(c2ccc3ncnc(Nc4cc(Cl)c(Oc5ccn6ncnc6c5)cc4F)c3n2)C[C@@H]1C    1.2
C=CC(=O)N1CCC(Oc2ccc3ncnc(Nc4ccc(Oc5ccn6ncnc6c5)c(Cl)c4F)c3n2)CC1    1.2
C=CC(=O)N1C[C@H]2C[C@H](c3ccc4ncnc(Nc5ccc(Oc6ccc7c(c6)ncn7C)c(C)c5F)c4n3)C[C@H]2C1    6.8
C=CC(=O)N1CCN(c2ccc3ncnc(Nc4ccc(Oc5cnc6c(c5)ncn6C)c(C)c4F)c3n2)C[C@H]1C1CC1    0.9
C=CC(=O)N1CC[C@H]2C[C@@H](c3ccc4ncnc(Nc5cc(C)c(Oc6ccc7c(c6)ncn7C)cc5F)c4n3)C[C@H]21 (racemic)    1.5
C=CC(=O)N1CCCC(c2ccc3ncnc(Nc4cc(C)c(Oc5ccn6ncnc6c5)cc4F)c3n2)CC1 (stereo not shown)    1.4

----------
Measured pIC50 of individual entries
Target: UniProt P00533
Experiment: Cellular Phosphorylation Assay, Assay 5 (EGF-stimulated EGFR phosphorylation, NIH 3T3 cells)
Format: cell-based
Conditions: EGF-stimulated EGFR WT phosphorylation
pIC50: −log10 of the molar value.
PARAMETER: pIC50

Cc1c(Oc2ccn3ncnc3c2)ccc(Nc2ncnc3ccc(N4CCN(C(=O)C56CC5C6)C(C)(C)C4)nc23)c1F (stereo not drawn)    ≤ 5.30
C=CC(=O)N1C[C@H]2C[C@@H]1CN2c1ccc2ncnc(Nc3ccc(Oc4ccc5c(c4)ncn5C)c(C)c3F)c2n1    ≤ 5.30
CC#CC(=O)N1CCN(c2ccc3ncnc(Nc4ccc(Oc5ccn6ncnc6c5)c(C)c4F)c3n2)C[C@@H]1C(F)F (racemic)    6.45

----------
Target: EGFR (Homo sapiens (Human))
Sequence (P00533 25-1210): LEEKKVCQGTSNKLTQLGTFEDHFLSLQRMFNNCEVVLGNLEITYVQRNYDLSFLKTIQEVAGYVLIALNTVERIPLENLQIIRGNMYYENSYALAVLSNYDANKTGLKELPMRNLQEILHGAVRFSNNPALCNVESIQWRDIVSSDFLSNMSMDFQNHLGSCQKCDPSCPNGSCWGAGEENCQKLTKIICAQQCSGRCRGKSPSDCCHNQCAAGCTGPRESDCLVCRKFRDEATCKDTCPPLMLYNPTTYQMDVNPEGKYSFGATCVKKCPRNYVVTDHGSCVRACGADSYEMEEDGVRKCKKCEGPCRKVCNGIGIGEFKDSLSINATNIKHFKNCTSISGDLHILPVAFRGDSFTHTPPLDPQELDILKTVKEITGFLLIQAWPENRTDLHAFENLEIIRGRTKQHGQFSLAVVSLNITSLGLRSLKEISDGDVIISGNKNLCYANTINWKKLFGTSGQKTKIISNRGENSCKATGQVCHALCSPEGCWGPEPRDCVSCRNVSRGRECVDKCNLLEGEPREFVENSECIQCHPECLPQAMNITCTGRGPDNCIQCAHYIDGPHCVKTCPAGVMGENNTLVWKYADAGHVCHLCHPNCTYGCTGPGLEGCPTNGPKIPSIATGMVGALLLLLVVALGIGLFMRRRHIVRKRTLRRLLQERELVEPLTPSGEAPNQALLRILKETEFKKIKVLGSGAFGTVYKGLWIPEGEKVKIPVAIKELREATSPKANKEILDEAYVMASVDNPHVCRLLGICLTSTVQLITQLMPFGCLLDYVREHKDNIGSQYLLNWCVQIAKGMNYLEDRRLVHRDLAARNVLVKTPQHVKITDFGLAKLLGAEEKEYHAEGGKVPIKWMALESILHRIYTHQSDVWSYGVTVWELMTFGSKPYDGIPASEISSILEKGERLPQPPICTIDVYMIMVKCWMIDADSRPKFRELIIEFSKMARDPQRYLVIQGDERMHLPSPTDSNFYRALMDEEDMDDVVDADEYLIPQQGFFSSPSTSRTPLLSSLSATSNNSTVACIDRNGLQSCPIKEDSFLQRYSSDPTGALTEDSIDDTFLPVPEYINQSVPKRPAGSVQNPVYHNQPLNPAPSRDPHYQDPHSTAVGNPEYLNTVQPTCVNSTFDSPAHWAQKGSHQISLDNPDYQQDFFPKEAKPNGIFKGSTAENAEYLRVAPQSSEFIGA
Experiment: ErbB Enzyme Assay (HTRF KinEASE-TK), Assay 3
Format: biochemical
Settings: EGFR enzyme assay
PARAMETER: IC50 (µM)

C=CC(=O)N1C[C@@H]2C[C@H](c3ccc4ncnc(Nc5cc(C)c(Oc6ccn7ncnc7c6)cc5F)c4n3)C[C@H]1C2 [Example 390]    2.21
C=CC(=O)N1C[C@H]2CC[C@@H]1[C@@H](c1ccc3ncnc(Nc4cc(C)c(Oc5ccn6ncnc6c5)cc4F)c3n1)C2 [Example 396]    4.06
C=CC(=O)N1[C@H](C)CN(c2ccc3ncnc(Nc4ccc(Oc5ccn6ncnc6c5)c(C)c4F)c3n2)C[C@@H]1C [Example 264]    6.67
C=CC(=O)N1CCN(c2ccc3ncnc(Nc4cc(Cl)c(Oc5ccn6ncnc6c5)cc4F)c3n2)C[C@H]1COC [Example 345]    0.174
C=CC(=O)N1CC2CCC(C1)N2c1ccc2ncnc(Nc3cc(C)c(Oc4ccn5ncnc5c4)cc3F)c2n1 [Example 454]    1.18

----------
Measured IC50 of individual entries
Target: ErbB2 WT (Homo sapiens (Human), UniProt P04626)
Sequence (P04626 23-1255): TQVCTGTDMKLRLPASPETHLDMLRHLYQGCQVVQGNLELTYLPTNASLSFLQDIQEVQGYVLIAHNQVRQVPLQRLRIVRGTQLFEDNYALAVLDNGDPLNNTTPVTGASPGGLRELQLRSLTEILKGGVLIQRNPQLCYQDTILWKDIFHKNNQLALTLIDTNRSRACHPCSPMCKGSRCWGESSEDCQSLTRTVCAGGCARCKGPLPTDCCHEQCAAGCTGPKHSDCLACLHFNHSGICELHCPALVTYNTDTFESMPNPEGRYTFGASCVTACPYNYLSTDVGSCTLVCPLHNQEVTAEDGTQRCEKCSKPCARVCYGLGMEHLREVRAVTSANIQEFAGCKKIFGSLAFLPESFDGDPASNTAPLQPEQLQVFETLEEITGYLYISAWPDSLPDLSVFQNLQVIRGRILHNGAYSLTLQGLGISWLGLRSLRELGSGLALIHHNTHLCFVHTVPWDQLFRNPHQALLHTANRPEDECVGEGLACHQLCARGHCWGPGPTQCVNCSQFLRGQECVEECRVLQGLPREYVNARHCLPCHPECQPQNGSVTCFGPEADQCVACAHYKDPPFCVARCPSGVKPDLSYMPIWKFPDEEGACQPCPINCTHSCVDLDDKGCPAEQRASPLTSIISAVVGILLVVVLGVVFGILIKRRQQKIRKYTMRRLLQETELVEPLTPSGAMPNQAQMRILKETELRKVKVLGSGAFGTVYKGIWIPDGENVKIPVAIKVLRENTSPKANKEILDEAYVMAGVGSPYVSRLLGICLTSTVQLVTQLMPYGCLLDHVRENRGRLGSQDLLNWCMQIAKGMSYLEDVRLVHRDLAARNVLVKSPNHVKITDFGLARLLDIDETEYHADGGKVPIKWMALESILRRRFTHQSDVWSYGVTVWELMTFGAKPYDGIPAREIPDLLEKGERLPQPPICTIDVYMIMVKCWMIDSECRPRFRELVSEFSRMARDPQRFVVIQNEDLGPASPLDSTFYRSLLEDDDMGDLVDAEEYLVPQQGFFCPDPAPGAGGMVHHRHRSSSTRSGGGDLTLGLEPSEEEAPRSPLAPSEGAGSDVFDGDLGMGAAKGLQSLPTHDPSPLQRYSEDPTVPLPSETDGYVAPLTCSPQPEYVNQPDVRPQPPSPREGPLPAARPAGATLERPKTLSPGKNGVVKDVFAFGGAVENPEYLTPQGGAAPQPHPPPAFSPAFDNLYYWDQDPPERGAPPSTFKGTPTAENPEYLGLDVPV
Experiment: ErbB Enzyme Assay (HTRF KinEASE-TK), Assay 2
Assay type: biochemical
Conditions: ErbB2 WT enzyme
PARAMETER: IC50 (nM)

C=CC(=O)N1C[C@@H]2C[C@H]1CN(c1ccc3ncnc(Nc4cc(C)c(Oc5ccc6c(c5)ncn6C)cc4F)c3n1)C2 [Example 102]    461
C=CC(=O)N1C[C@H](c2ccc3ncnc(Nc4ccc(Oc5ccc6c(c5)ncn6C)c(C)c4F)c3n2)CCC1(C)C (racemic) [Example 36]    105
C=CC(=O)N1C[C@@H]2C[C@H]1CN(c1ccc3ncnc(Nc4cc(Cl)c(Oc5ccc6c(c5)ncn6C)cc4F)c3n1)C2 [Example 248]    108
C=CC(=O)N1[C@@H]2CC[C@H]1C[C@@H](c1ccc3ncnc(Nc4cc(C)c(Oc5ccn6ncnc6c5)cc4F)c3n1)C2 [Example 206]    151
C=CC(=O)N1C[C@H]2CC[C@@H](C1)[C@@H]2c1ccc2ncnc(Nc3cc(C)c(Oc4ccn5ncnc5c4)cc3F)c2n1 [Example 222]    133
C=CC(=O)N1C[C@H](c2ccc3ncnc(Nc4ccc(Oc5ccc6c(c5)ncn6C)c(C)c4F)c3n2)C[C@H]1C [Example 193]    61.8
C=CC(=O)N1CCN(c2ccc3ncnc(Nc4cc(C)c(Oc5ccn6ncnc6c5)cc4F)c3n2)CC1(C)C [Example 73]    36.4
CC#CC(=O)N1C2CCC1CN(c1ccc3ncnc(Nc4ccc(Oc5ccn6ncnc6c5)c(C)c4F)c3n1)C2 [Example 240]    143
C=CC(=O)N1C[C@@H]2C[C@H]1C[C@H]2c1ccc2ncnc(Nc3ccc(Oc4ccn5ncnc5c4)c(C)c3F)c2n1 (racemic) [Example 199]    17.4
C=CC(=O)N1CC[C@@H]2C[C@@H](c3ccc4ncnc(Nc5cc(C)c(Oc6ccn7ncnc7c6)cc5F)c4n3)C[C@@H]21 (single isomer, unassigned) [Example 224]    58
C=CC(=O)N1C[C@H]2CC[C@@H]1C[C@H]2c1ccc2ncnc(Nc3ccc(Oc4ccn5ncnc5c4)c(C)c3F)c2n1 (racemic) [Example 218]    24.4
C=CC(=O)N1CCC[C@@H](c2ccc3ncnc(Nc4ccc(Oc5ccc6c(c5)ncn6C)c(C)c4F)c3n2)CC1 (racemic) [Example 147]    18.6
C=CC(=O)N1CC[C@@H](c2ccc3ncnc(Nc4ccc(Oc5ccn6ncnc6c5)c(C)c4F)c3n2)CC12CC2 (single isomer, unassigned) [Example 173]    105
C=CC(=O)N1CC[C@@H](c2ccc3ncnc(Nc4cc(C)c(Oc5ccc6c(c5)ncn6C)cc4F)c3n2)C1 (racemic) [Example 132]    75.9
C=CC(=O)N1C[C@H]2C[C@@H]1CN2c1ccc2ncnc(Nc3ccc(Oc4ccn5ncnc5c4)c(C)c3F)c2n1 [Example 94]    170
C=CC(=O)N1CCC(Oc2ccc3ncnc(Nc4ccc(Oc5ccn6ncnc6c5)c(Cl)c4F)c3n2)CC1 [Example 13]    8.4
C=CC(=O)N1CCN(c2ccc3ncnc(Nc4ccc(Oc5ccn6ncnc6c5)c(Cl)c4)c3n2)CC1 [Example 97]    3.2
C=CC(=O)N1CCN(c2ccc3ncnc(Nc4ccc(Oc5cnc6c(c5)ncn6C)c(C)c4F)c3n2)C[C@@H]1C1CC1 [Example 167]    519
C=CC(=O)N1CCCC[C@@H](c2ccc3ncnc(Nc4ccc(Oc5ccc6c(c5)ncn6C)c(C)c4)c3n2)C1 (single isomer, unassigned) [Example 171]    13.4
C=CC(=O)N1[C@@H]2CC[C@H]1CC(c1ccc3ncnc(Nc4ccc(Oc5ccc6c(c5)ncn6C)c(C)c4F)c3n1)C2 (mixture of isomers) [Example 143]    32.7
C=CC(=O)N1CCC(c2ccc3ncnc(Nc4ccc(Oc5ccc6c(c5)ncn6C)c(C)c4F)c3n2)CC1 [Example 146]    15.8
C=CC(=O)N1CCC(Oc2ccc3ncnc(Nc4ccc(Oc5cc6nn(C)cc6cn5)c(C)c4)c3n2)CC1 [Example 52]    395
CNC(=O)/C=C/c1ccc2ncnc(Nc3ccc(Oc4ccc5c(c4)ncn5C)c(C)c3)c2n1 [Example 22]    167
CC#CC(=O)Nc1ccc2ncnc(Nc3ccc(Oc4ccc5c(c4)ncn5C)c(C)c3)c2n1 [Example 19]    17.8
